assay: chemical genetic growth profiling, strain panel (AID 1159580);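 further: tested at 20 µM; growth read once vehicle control cultures reached saturation at 30 °C; 1 = growth at the plate median or of vehicle wells; lower values mean less growth of the strain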; details: S. cerevisiae deletion strains, growth OD, locus YLR058C, strain SHM2, active compounds read low
In all, about 5,500 compounds went through this assay and about 2,000 (36%) were called active. Another 18% or so got no clear call; they are omitted. The list shows a part of the results.
Catalogue of compounds with associated normalized growth
RESULT TYPE: normalized growth

INSERT INTO measurements (compound, experimental_value) VALUES
  ('NS(=O)(=O)c1cc2c(cc1Cl)NCNS2(=O)=O', 0.989),
  ('CC(C)N1C(=O)c2ccccc2NS1(=O)=O', 1),
  ('O=c1c(O)c(-c2ccccc2)oc2ccccc12', 0.977),
  ('O=c1c(O)c(-c2ccccc2)oc2ccc3occc3c12', 0.854),
  ('CC(C)C1CCC(C(=O)N[C@@H](Cc2ccccc2)C(=O)O)CC1 (stereo partly drawn)', 1),
  ('O=c1c(O)c(-c2ccccc2)oc2cc(O)ccc12', 0.514),
  ('CC(NC(C)(C)C)C(=O)c1cccc(Cl)c1 (stereo not drawn)', 1.01),
  ('O=C1C(=O)c2ccccc2C(O)=C1C1CCC(c2ccc(Cl)cc2)CC1 (stereo not drawn)', 0.988);

----------
assay: chemical genetic growth profiling, strain panel (AID 1159580); conditions: S. cerevisiae deletion strains, growth OD, locus YIL073C, strain SPO22
In all, about 5,500 compounds went through this assay and about 2,000 (36%) were called active. Inconclusive results (about 18%) are left out. Cut-off read from the data, not from the text of the source: active = normalized growth mostly below about 0.91 (no sharp cut-off); inconclusive = no clear call, values can overlap the other calls; inactive = mostly above about 0.92. The list shows a part of the results.
Outcome codes: True for active, False for inactive

INSERT INTO assay_data (compound, assigned_category) VALUES
  ('O=C(N[C@@H](CO)[C@H](O)c1ccc([N+](=O)[O-])cc1)C(Cl)Cl', 'False'),
  ('C[C@H]1C(=O)CCC2[C@]3(C)CC[C@@]4(C)C5CC(C)(C)CC[C@]5(C)CC[C@]4(C)C3CC[C@@]21C (stereo not given in full)', 'False'),
  ('CCCCN(CC)c1c([N+](=O)[O-])cc(C(F)(F)F)cc1[N+](=O)[O-]', 'False'),
  ('O=C(CCc1ccc(O)cc1)c1c(O)cc(O)cc1O', 'False'),
  ('C/C(=C\CO)CC[C@H](C)CCC[C@H](C)CCCC(C)C', 'False'),
  ('COC(=O)CC1C(C)(C)C(=O)C2CC3(O)C4=CC(=O)OC(c5ccoc5)C4(C)CCC3C1(C)C2=O (stereo not given)', 'False'),
  ('O=C(Nc1ccc([N+](=O)[O-])cc1Cl)c1cc(Cl)ccc1O', 'True'),
  ('O=C(O)CCC(=O)OC[C@@H](NC(=O)C(Cl)Cl)[C@H](O)c1ccc([N+](=O)[O-])cc1', 'False'),
  ('CC[C@H]1OC(=O)[C@H](C)[C@@H](O[C@H]2C[C@@](C)(OC)[C@@H](O)[C@H](C)O2)[C@H](C)[C@@H](O[C@@H]2O[C@H](C)C[C@H](N(C)C)[C@H]2O)[C@](C)(O)C[C@@H](C)/C(=N/OCOCCOC)[C@H](C)[C@@H](O)[C@]1(C)O', 'False'),
  ('COC(=O)C[C@H]1C(C)(C)[C@H](O)[C@@H]2CC3=C4CC(O)O[C@@H](c5ccoc5)[C@]4(C)CCC3[C@@]1(C)C2=O (stereo not given in full)', 'False'),
  ('C=C(C)C1Cc2c(ccc3c(=O)c4c(oc23)COc2cc(OC)c(OC)cc2-4)O1 (stereo not given)', 'False'),
  ('CCCN(CCC)c1c([N+](=O)[O-])cc(C(F)(F)F)cc1[N+](=O)[O-]', 'False'),
  ('CC(C)=CCC/C(C)=C/CO', 'False'),
  ('O=C(c1ccccc1)c1ccc2n1CCC2C(=O)O (stereo not given)', 'False'),
  ('CC(=O)O[C@@H]1C2CC[C@@H]3C1(C[C@@H](O)[C@@]1(O)[C@@H](C[C@H](O)C1(C)C)[C@]3(C)O)C[C@@]2(C)O (stereo not given in full)', 'False'),
  ('COc1cc(OC)c2c(OC)c(-c3ccc4c(c3)OCO4)c(=O)oc2c1', 'False'),
  ('COc1ccc(-c2c(OC)c3c(OC)c4c(cc3oc2=O)OC(C)(C)C=C4)cc1', 'False'),
  ('COC(=O)c1cc(OC)c(=O)c2c(OC)c(OC)ccc2c1', 'False'),
  ('CNC(C)[C@@H]1CC[C@@H](N)[C@@H](OC2[C@@H](N)C[C@@H](N)[C@H](OC3OC[C@](C)(O)[C@H](NC)[C@H]3O)[C@H]2O)O1 (stereo not given in full)', 'False'),
  ('CC(=O)NS(=O)(=O)c1ccc(N)cc1', 'False'),
  ('O=c1c(O)c(-c2ccccc2)oc2cc(O)ccc12', 'True'),
  ('O=C(O)c1cc(O)c2c(c1)C(=O)c1cc(O)cc(O)c1C2=O', 'False'),
  ('CN1C(=O)CC[C@H]1c1cccnc1', 'False'),
  ('Cn1c(=O)c2c(ncn2C)n(C)c1=O', 'False'),
  ('O=C1NS(=O)(=O)c2ccccc21', 'False');

----------
Catalogue of molecules with associated normalized growth
experiment: chemical genetic growth profiling, strain panel (AID 1159580);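 further: tested at 20 µM; growth read once vehicle control cultures reached saturation at 30 °C; 1 = growth at the plate median or of vehicle wells; lower values mean less growth of the strain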; conditions: S. cerevisiae deletion strains, growth OD, locus YLR370C, strain arc18, active compounds read low
The whole screen tested about 5,500 compounds, of which about 2,000 (36%) were called active. Roughly 18% stayed inconclusive and do not appear here. This is one part of the list.
RESULT TYPE: normalized growth

INSERT INTO measurements (molecule, experimental_value) VALUES
  ('CCCN(CCC)c1c([N+](=O)[O-])cc(C(F)(F)F)cc1[N+](=O)[O-]', '1 (inactive)'),
  ('CCCCCCCCCCCCCCCC(=O)OC[C@H](NC(=O)C(Cl)Cl)[C@H](O)c1ccc([N+](=O)[O-])cc1', '1.04 (inactive)'),
  ('Oc1cc2c(cc1O)C(c1ccccc1)CNCC2 (configuration not stated)', '0.991 (inactive)'),
  ('CC(NC(C)(C)C)C(=O)c1cccc(Cl)c1 (configuration not stated)', '1 (inactive)'),
  ('COc1ccccc1OCC(O)COC(N)=O (configuration not stated)', '0.987 (inactive)'),
  ('C=C(C)C1Cc2c(ccc3c(=O)c4c(oc23)COc2cc(OC)c(OC)cc2-4)O1 (configuration not stated)', '1.01 (inactive)'),
  ('Cn1c(=O)c2c(ncn2C)n(C)c1=O', '0.936 (inactive)'),
  ('O=C(N[C@@H](CO)[C@H](O)c1ccc([N+](=O)[O-])cc1)C(Cl)Cl', '1.02 (inactive)'),
  ('CC(C)[C@@H]1CC[C@@H](C)CC1=O', '0.983 (inactive)'),
  ('COC1=CC23CCCN2CCc2cc4c(cc2C3C1O)OCO4 (configuration not stated)', '1.03 (inactive)'),
  ('COc1ccc(NS(=O)(=O)c2ccc(N)cc2)nn1', '0.999 (inactive)'),
  ('O=C(O)[C@H]1/C(=C/CO)O[C@@H]2CC(=O)N21', '0.972 (inactive)'),
  ('CC(=O)CCCCn1c(=O)c2c(ncn2C)n(C)c1=O', '1.02 (inactive)'),
  ('Cn1c(=O)c2c(ncn2CCO)n(C)c1=O', '1.02 (inactive)'),
  ('CCCCCC/C=C\CCCCCCCc1cccc(O)c1C(=O)O', '0.969 (inactive)'),
  ('Oc1cccc2cccnc12', '0.0611 (active)'),
  ('O=C(O)c1cccnc1C(=O)O', '0.984 (inactive)');

----------
assay: chemical genetic growth profiling, strain panel (AID 1159580);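 further: tested at 20 µM; growth read once vehicle control cultures reached saturation at 30 °C; 1 = growth at the plate median or of vehicle wells; lower values mean less growth of the strain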; conditions: S. cerevisiae deletion strains, growth OD, locus YKL160W, strain elf1, active compounds read low
About 2,000 (36%) of roughly 5,500 compounds were called active. Roughly 18% stayed inconclusive and do not appear here. The list shows a part of the results.
RESULT TYPE: normalized growth

INSERT INTO measurements (smiles_string, experimental_value) VALUES
  ('CC(=O)c1ccc[nH]1', '1 (inactive)'),
  ('O=C(O)c1cc(=O)c2ccccc2[nH]1', '0.993 (inactive)'),
  ('NS(=O)(=O)c1cc2c(cc1Cl)NCNS2(=O)=O', '0.988 (inactive)'),
  ('O=C(O)c1cccnc1C(=O)O', '0.999 (inactive)');

----------
Catalogue of compounds with associated normalized growth
experiment: chemical genetic growth profiling, strain panel (AID 1159580);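 further: tested at 20 µM; growth read once vehicle control cultures reached saturation at 30 °C; 1 = growth at the plate median or of vehicle wells; lower values mean less growth of the strain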; settings: S. cerevisiae deletion strains, growth OD, locus YGL253W, strain hxk2, active compounds read low
Among all 5,500 compounds or so, about 2,000 (36%) were called active. Another 18% or so got no clear call; they are omitted. The list shows a part of the results.
RESULT TYPE: normalized growth

INSERT INTO measurements (smiles_string, experimental_value) VALUES
  ('CON', 1.01),
  ('COc1ccc(NS(=O)(=O)c2ccc(N)cc2)nn1', 1.01),
  ('CC[C@H]1OC(=O)[C@H](C)[C@@H](O[C@H]2C[C@@](C)(OC)[C@@H](O)[C@H](C)O2)[C@H](C)[C@@H](O[C@@H]2O[C@H](C)C[C@H](N(C)C)[C@H]2O)[C@](C)(O)C[C@@H](C)/C(=N/OCOCCOC)[C@H](C)[C@@H](O)[C@]1(C)O', 1.01),
  ('Cn1cnc2c1c(=O)[nH]c(=O)n2C', 0.99),
  ('CN1CCN(C2=Nc3cc(Cl)ccc3Nc3ccccc32)CC1', 0.982),
  ('C=C[C@H]1CN2CC[C@H]1C[C@H]2[C@H](O)c1ccnc2ccccc12', 1);
